Parameter: melting point

O=C(O)CC1COc2ccccc2O1 (stereo not given); 95 °C
O=C1ON(c2ccccc2Cl)C(c2ccccc2)C1c1ccccc1 (stereo not given); 178 to 180 °C
O=C(O)C(=O)Nc1ccc2c(=O)c3c(oc2c1)C(=Cc1ccccc1)CC3; 253 to 256 °C
COc1ccc(C(=O)Nc2ccccc2)cc1Nc1cccc([N+](=O)[O-])c1; 220 to 221 °C

// next item, melting point requested
Prompt: Entry CC(=O)Oc1c2c(c3ccccc3c1OC(C)=O)Nc1ccccc1S2 : reported melting point = ?
Completion: 206 to 207 °C

----------
Parameter: melting point

Prompt: Entry Cn1c(C(F)(F)F)cc(=O)n(-c2ccc3snc(C4OCC5(CO4)CO5)c3c2)c1=O (stereo not given) : reported melting point = ?
Completion: 203 to 206 °C

Prompt: Entry Cc1ccc(-n2ccc3c(OCC(C)(C)C)nn(C)c(=O)c32)c(C)c1 : reported melting point = ?
Completion: 146 to 147 °C

Prompt: Entry CC1(C)CON(Cc2ccc(N3C(=O)c4cccnc4C3=O)cc2Cl)C1=O : reported melting point = ?
Completion: 139 to 141 °C

Prompt: Entry Clc1ccc(C=Cc2nc3c(s2)NCCCC3)cc1 : reported melting point = ?
Completion: 188 to 189 °C

Prompt: Entry Cc1ccc(-c2cc(Cl)c3ccccc3n2)cc1 : reported melting point = ?
Completion: 75 to 77 °C

----------
Parameter: melting point

CCOC(=O)C1=C(C)NNC(CC)=C1c1ccco1; 82 °C
COc1ccccc1CNCc1c(-c2ccccc2)c2cc(C)c(C)cc2c(=O)n1C; 159 to 160 °C

Prompt: Entry CCOC(=O)N1CC(C)C2=NNC(=O)CC2C1 (configuration not stated) : reported melting point = ?
Completion: 101 to 103 °C

Prompt: Entry O=C(O)COc1ccc(OCCC2CCN(c3ccncc3)CC2)cc1 : reported melting point = ?
Completion: 247 to 249 °C

Prompt: Entry CC(=O)Oc1ccc(/C=C/c2cc(C)cc(C)c2)cc1 : reported melting point = ?
Completion: 84.9 to 85 °C

Prompt: Entry O=C(c1ccc(-c2ccccc2)cc1)c1ccc([N+](=O)[O-])cc1 : reported melting point = ?
Completion: 174 to 176 °C

Prompt: Entry CC(=O)N1c2ccc(-c3ccc(-c4nnn[nH]4)cc3)cc2C(Nc2ccc(Cl)cc2)CC1C (configuration not stated) : reported melting point = ?
Completion: 250 °C

Prompt: Entry Cc1cc(C#Cc2cn(-c3ccc(F)cc3)c(C)n2)ccn1 : reported melting point = ?
Completion: 151 °C

Prompt: Entry Cc1cccc(C(=O)c2[nH]c3cc(Cl)ccc3c2CC(=O)O)c1 : reported melting point = ?
Completion: 182 to 184 °C

Prompt: Entry CC(C(=O)O)c1ccc2c(c1)C(=O)C(C(C)C)C2 (configuration not stated) : reported melting point = ?
Completion: 130 to 132 °C

----------
Overview of recorded melting point for various compounds

The examples below pair each entry with its known result.
COC(=O)c1cc(NC(C)C)c2cc(Cc3ccc(F)cc3)cnc2c1O; 121 to 122 °C
Cc1nnc2c3c(c(NCCN4CCCC4)nn12)CCCC3; 184 to 186 °C
CCCOc1ccc(S(=O)(=O)NCCc2c[nH]cn2)cc1-c1nc2cc(Cl)c([N+](=O)[O-])cc2c(=O)[nH]1; 140 to 144 °C
COc1cc(CC(=O)Nc2ccc(C3CN(Cc4ccccc4)CC3C(=O)O)cc2)ccc1NC(=O)Nc1ccccc1C (stereo not given); 255 °C
CCN(C(=O)c1ccccc1C(=O)c1ccc(Cl)cc1)[C@@H]1CCCC[C@@H]1NS(=O)(=O)c1ccc(C)cc1 (relative stereo); 178 to 180 °C

Prompt: Entry O=C(CC(=O)c1ccccc1)C(=O)CC(=O)c1ccccc1 : reported melting point = ?
Completion: 178 to 180 °C

Prompt: Entry ClCc1nc2cc(Br)ccc2s1 : reported melting point = ?
Completion: 107 °C
